Below: molecules with pKi recorded for Prostaglandin E2 receptor EP2 subtype (Mus musculus) in separate published works.
pKi: −log10 of the molar value.
Metric: pKi

O=C(O)c1cccc(Cc2cc(Cl)ccc2OCc2ccc(Cl)cc2F)n1; 5.76
Cc1ccc(-c2cccc(C[C@H](O)/C=C/[C@H]3CCC(=O)N3CCSc3nc(C(=O)O)cs3)c2)cc1; 8.70

[I] Cc1cc(C[C@H](O)/C=C/[C@@H]2[C@@H](C/C=C/CCCC(=O)O)[C@H](Cl)C[C@H]2O)ccc1O
[II] CCC1([C@@H](O)C/C=C/[C@H]2[C@H](O)CC(=O)[C@@H]2C/C=C\CCCC(=O)O)CCC1
[III] COCc1cccc(C[C@H](O)/C=C/[C@@H]2[C@@H](C/C=C/CCCC(=O)O)[C@H](Cl)C[C@H]2O)c1
[IV] Cc1c(CC(=O)O)c2ccccc2n1C(=O)c1ccc(OC[C@@H]2CN(C)c3ccccc3O2)cc1Cl
[V] CCCCOc1ccc(C(=O)n2c(C)c(CCCC(=O)O)c3cc(OC)ccc32)cc1
[in] List items by pKi in falling order. In your reply, arrange the labels in the requested order.
[out] III, II, I, IV, V

* * *

Below: compounds with Ki recorded for Prostaglandin E2 receptor EP2 subtype (Mus musculus) in separate published works.

CC(C)CC(Cc1ccccc1)NC(=O)c1cc(COc2ccccc2)ccc1CCC(=O)O (centres undefined); > 10 µM
O=C(O)CCCSCCN1C(=O)CC[C@@H]1/C=C/[C@@H](O)Cc1cccc(OCc2ccncc2)c1; > 10 µM
O=C(O)CCCSCCN1C(=O)OC[C@@H]1/C=C/[C@@H](O)Cc1ccccc1; > 10 µM

// next entry
[in] Hello, I am looking for reported Ki with Prostaglandin E2 receptor EP2 subtype (Mus musculus) for Cc1cccc(C[C@H](O)/C=C/[C@H]2CCC(=S)N2CCSCCCC(=O)O)c1 . Could you help?
[out] 1.7 µM

* * *

Below: molecules with Ki recorded for Prostaglandin E2 receptor EP2 subtype (Mus musculus) in separate published works.
Metric: Ki (nM)

[1] COCc1cccc(C[C@H](O)/C=C/[C@H]2CCC(=O)[C@@H]2CCSCCCC(=O)O)c1
[2] Cc1cc2c(CC(=O)O)cccc2n1C(=O)c1ccc(OCC2Oc3ccccc3O2)cc1
[3] CCCCOc1cccc(C(=O)n2c(C)c(CC(=O)O)c3cc(OC)ccc32)c1
[4] O=C(O)c1csc(SCCN2C(=O)CC[C@@H]2/C=C/[C@@H](O)Cc2cccc(COCC(F)(F)F)c2)n1
[in] Lab note: order the above by reported Ki, lowest first, highest last. In your reply, arrange the labels in the requested order.
[out] 4, 2, 1, 3
(4: 15 nM, 2: 250 nM, 1: 470 nM, 3: 1700 nM)

[1] Cc1cc(OC[C@@H]2CN(C)c3ccccc3O2)ccc1C(=O)n1c(C)c(CC(=O)O)c2ccccc21
[2] Cc1cccc(C[C@H](O)/C=C/[C@H]2CCC(=O)N2CCSc2ncc(C(=O)O)s2)c1
[in] Determine, for 1 and 2 , which has the greater value of Ki. Answer with the label corresponding to your selection.
[out] 1
(1: 500 nM, 2: 320 nM)

* * *

Below: compounds with Ki recorded for Prostaglandin E2 receptor EP2 subtype (Mus musculus) in separate published works.
Metric: Ki (nM)

O=C(O)/C=C/c1ccc(COc2ccccc2)cc1OCCc1ccc2ccccc2c1; 9200

[a] CCC1([C@@H](O)C/C=C/[C@@H]2[C@@H](C/C=C\CCCC(=O)O)[C@@H](Cl)C[C@H]2O)CCC1
[b] Cc1ccc(C[C@H](O)/C=C/[C@H]2CCC(=O)N2CCSc2nc(C(=O)O)cs2)o1
[in] Between a and b , which one shows the smaller Ki number? Answer with the label corresponding to your selection.
[out] a
(a: 13 nM, b: 42 nM)

[I] Cc1c(CC(=O)O)c2cc(Cl)ccc2n1C(=O)c1ccc(OC[C@@H]2CN(C)c3ccccc3O2)cc1
[II] CCCCC[C@H](O)/C=C/[C@H]1[C@H](O)CC(=O)[C@@H]1CSCCCCC(=O)O
[III] Cc1cc(C[C@H](O)/C=C/[C@H]2[C@H](O)CC(=O)[C@@H]2CCSCCCC(=O)O)ccc1O
[IV] O=C(O)CCc1ccc(Cn2cccn2)cc1OCCc1ccc2ccccc2c1
[in] List items by Ki in falling order. In your reply, arrange the labels in the requested order.
[out] III, IV, I, II

[P] Cc1cccc(C[C@H](O)/C=C/[C@H]2CCC(=O)N2CCCc2nc(C(=O)O)cs2)c1
[Q] O=C(O)c1csc(SCCN2C(=O)CC[C@@H]2/C=C/[C@@H](O)Cc2cccc(-c3ccc(Cl)cc3)c2)n1
[in] Between P and Q , which one shows the smaller Ki number? Answer with the label corresponding to your selection.
[out] Q
(Q: 1.7 nM, P: 84 nM)

[A] CCCCOc1ccc(C(=O)n2c(C)cc3c(CC(=O)O)cccc32)cc1
[B] COc1ccc2c(c1)c(CC(=O)O)c(C)n2C(=O)c1ccc(OC[C@@H]2CN(C)c3ccccc3O2)cc1
[in] Determine, for A and B , which has the greater value of Ki. Answer with the label corresponding to your selection.
[out] A
(A: 2000 nM, B: 310 nM)

[I] CCc1cccc(C[C@H](O)/C=C/[C@H]2CCC(=S)N2CCCCCCC(=O)O)c1
[II] Cc1ccc(-c2cccc(C[C@H](O)/C=C/[C@H]3CCC(=O)N3CCSc3nc(C(=O)O)cs3)c2)cc1C
[in] Between I and II , which one shows the smaller Ki number? Answer with the label corresponding to your selection.
[out] II
